test: Body weight of rats in method B; set-up: species or system male Wistar strain rats; details: rat, in vivo
recorded endpoint: Body weight during feed period, 1st day (g)
Give bare numbers, in g.

CC(=Cc1cccc(N)c1)C(=O)OC1CCC23CC24CCC2(C)C(C(C)CCC(C)=C(C)C)CCC2(C)C4CCC3C1(C)C (stereo not drawn)
104
COc1cc(C=C(C)C(=O)OC2CCC34CC35CCC3(C)C(C(C)CCC(C)=C(C)C)CCC3(C)C5CCC4C2(C)C)ccc1O (stereo not drawn)
106

Turning now to a further compound:
Problem: Value lookup for Body weight during feed period, 1st day; key = CCC(=Cc1ccc(O)cc1)C(=O)OC1CCC23CC24CCC2(C)C(C(C)CCC=C(C)C)CCC2(C)C4CCC3C1(C)C (stereo not drawn)
Solution: 105
